Target: activated platelet fibrinogen receptor (Homo sapiens, UniProt P05106+P08514)
Construct: Platelets were isolated by placing 7 ml of platelet-rich-plasma onto a 50 ml column of Sepharose 2-B; endogenous in cells
Sequence (P08514 32-887 limits assumed): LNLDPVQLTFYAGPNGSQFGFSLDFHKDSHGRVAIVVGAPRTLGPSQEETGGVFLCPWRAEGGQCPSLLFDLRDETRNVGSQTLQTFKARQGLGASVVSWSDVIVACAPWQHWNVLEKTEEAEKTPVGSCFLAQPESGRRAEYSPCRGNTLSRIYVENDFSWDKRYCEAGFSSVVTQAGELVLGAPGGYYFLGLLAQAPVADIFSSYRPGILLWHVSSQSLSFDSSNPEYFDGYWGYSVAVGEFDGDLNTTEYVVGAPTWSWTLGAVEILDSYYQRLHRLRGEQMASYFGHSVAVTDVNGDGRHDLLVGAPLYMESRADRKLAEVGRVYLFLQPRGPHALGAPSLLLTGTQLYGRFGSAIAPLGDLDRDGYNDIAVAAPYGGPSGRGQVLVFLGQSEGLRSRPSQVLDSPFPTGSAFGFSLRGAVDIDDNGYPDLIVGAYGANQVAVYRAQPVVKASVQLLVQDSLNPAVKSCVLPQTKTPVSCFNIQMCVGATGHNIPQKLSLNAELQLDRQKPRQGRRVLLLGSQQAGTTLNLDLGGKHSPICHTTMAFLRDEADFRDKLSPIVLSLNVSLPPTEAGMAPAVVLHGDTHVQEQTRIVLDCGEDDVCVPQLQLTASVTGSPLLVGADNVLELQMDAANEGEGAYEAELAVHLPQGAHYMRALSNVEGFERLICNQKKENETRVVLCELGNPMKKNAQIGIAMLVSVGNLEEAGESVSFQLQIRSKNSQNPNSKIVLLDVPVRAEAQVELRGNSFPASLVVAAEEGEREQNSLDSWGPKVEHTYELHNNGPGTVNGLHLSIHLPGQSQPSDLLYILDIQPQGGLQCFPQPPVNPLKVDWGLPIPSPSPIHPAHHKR
Sequence (P08514 891-1039 partner limits assumed): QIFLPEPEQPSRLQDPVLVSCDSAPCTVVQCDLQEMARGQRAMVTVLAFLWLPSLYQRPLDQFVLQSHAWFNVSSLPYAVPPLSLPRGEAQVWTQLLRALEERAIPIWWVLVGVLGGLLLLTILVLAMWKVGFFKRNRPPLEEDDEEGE
Sequence (P05106 27-788): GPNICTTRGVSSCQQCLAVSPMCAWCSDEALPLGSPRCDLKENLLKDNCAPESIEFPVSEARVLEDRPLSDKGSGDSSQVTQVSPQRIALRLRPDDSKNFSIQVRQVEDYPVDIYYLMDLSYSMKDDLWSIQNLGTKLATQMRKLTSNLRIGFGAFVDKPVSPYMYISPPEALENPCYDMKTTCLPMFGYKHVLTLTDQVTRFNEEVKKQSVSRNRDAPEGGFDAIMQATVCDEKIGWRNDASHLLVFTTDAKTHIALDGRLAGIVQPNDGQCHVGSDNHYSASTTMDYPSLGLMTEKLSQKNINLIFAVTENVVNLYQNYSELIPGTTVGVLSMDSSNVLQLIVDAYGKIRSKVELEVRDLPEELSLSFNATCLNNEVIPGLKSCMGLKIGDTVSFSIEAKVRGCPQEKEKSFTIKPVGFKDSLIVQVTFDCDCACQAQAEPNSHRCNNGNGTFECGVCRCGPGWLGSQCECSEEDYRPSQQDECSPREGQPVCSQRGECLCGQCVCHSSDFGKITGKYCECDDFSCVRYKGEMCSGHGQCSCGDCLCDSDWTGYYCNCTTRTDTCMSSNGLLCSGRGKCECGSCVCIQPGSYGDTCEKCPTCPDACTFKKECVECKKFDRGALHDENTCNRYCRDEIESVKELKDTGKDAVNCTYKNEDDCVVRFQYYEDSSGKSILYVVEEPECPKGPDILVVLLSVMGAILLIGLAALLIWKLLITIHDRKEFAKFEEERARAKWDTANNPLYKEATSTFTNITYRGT
Experiment: Inhibition of binding of 125-I PAC-1 antibody to activated platelets
Details: inhibition of 125-I PAC-1 binding to platelets activated with PMA or ADP, 37 degrees C, 1 hr; read-out: IC-50 (μM) Binding
No end group written: not given here.
measured.quantity: IC50 (µM)
Return type: number; implicit unit µM.

# monomer.sequence, IC50 / µM
data = [
    ("ARRSPSYYRYDAGPYYAMDY", 90),
]

Now for a further sequence.
query: Write down measured IC50 (activated platelet fibrinogen receptor (Homo sapiens, UniProt P05106+P08514)) for this sequence. `ARRSPSYYRGDAGPYYAMDY`
result: 10

// data source = patent US5196510A
